# System: AncSZ;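 note: 11-residue human phosphosite peptides and single-mutation variants displayed on the E. coli surface, counted by deep sequencing, each peptide's frequency after selection divided by its frequency in the unselected input library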;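 note: frequency after pTyr selection over input frequency; kinase dosed for 20-30% of maximal phosphorylation in three min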
# method: phosphorylation enrichment, bacterial display (enrichment ratio); higher = better substrate or ligand; peptides without Tyr show the background
phosphorylation enrichment: recorded values
Please give the numeric answer without any surrounding text.

Below, each entry is followed by its recorded phosphorylation enrichment result.
[
  {
    "itemSequence": "RSGNCYLDIRP [FBN1_Y1535]",
    "reportedMetric": "phosphorylation enrichment",
    "valueMeasured": 1.06
  },
  {
    "itemSequence": "HLNLTYRILSF [MMP23B_Y95_F91L]",
    "reportedMetric": "phosphorylation enrichment",
    "valueMeasured": 1.43
  },
  {
    "itemSequence": "EKQVAYCPSGR [ROS1_Y2323_K2328R]",
    "reportedMetric": "phosphorylation enrichment",
    "valueMeasured": 2.05
  }
]

Q: Check the records and state phosphorylation enrichment for LHSEAYLKYIE [PBRM1_Y1610]
Result: 1.16

Q: Give the reported value of phosphorylation enrichment for this record: SHSMKYFDTAV [HLA-C_Y31_R30K]
Result: 0.579

Q: Provide one value: measured phosphorylation enrichment of ERDFTYDELLN [EIF2S2_Y176_E177D_YF]
Result: 1.53

Q: Recall and state the measured phosphorylation enrichment for KVNKIYFPDFI [LIG3_Y767_YF] .
Result: 0.799

Q: Please report the measured phosphorylation enrichment for FAGRDYSLDEF [MYOF_Y1705_G1701A_YF]
Result: 0.986

Q: Kindly indicate its recorded phosphorylation enrichment. Item: QNTGDDFDLFG [PTPN11_Y62_Y62D_YF]
Result: 1.7

Q: Report measured phosphorylation enrichment; entry is RNFGTYTAGLS [RHBDD1_Y264_D262G_YF]
Result: 0.702

Q: Give the reported phosphorylation enrichment for this sequence. EAAFVYAISSA [WNT4_Y113]
Result: 1.34

Q: Provide only the value of recorded phosphorylation enrichment for FTFDPYSEEDP [IL2RB_Y387_YF]
Result: 1.08

Q: Identify phosphorylation enrichment associated with the sequence YEPDAYDDLDQ [ELP5_Y302]
Result: 1.26

Q: Please report the measured phosphorylation enrichment for EEQKKYYNAMK [SCN5A_Y1494]
Result: 0.67

Q: Respond only with phosphorylation enrichment recorded for PNQRRYVFFFS [PTEN_Y174_S170N_YF]
Result: 1.89

Q: Complete the entry with phosphorylation enrichment for LQLLGYRPVYS [CHST6_Y358]
Result: 1.29

Q: State, in one line, measured phosphorylation enrichment of CTTIDYNYMCN [TP53_Y234_H233D]
Result: 1.3

Q: Indicate its recorded phosphorylation enrichment; the sequence in question is VEGIGYDFIPT [CBS_Y308]
Result: 1.04

Q: Give the reported phosphorylation enrichment for this sequence. VMIFAYLLHRG [PTEN_Y138_C136Y_YF]
Result: 0.807

Q: For the sequence VDGSVYELHPS [GCK_Y413_K414E] , give its reported phosphorylation enrichment.
Result: 1.56

Q: Kindly indicate its recorded phosphorylation enrichment. Item: STSKTYVISRT [RBBP6_Y87]
Result: 0.628

Q: Consider the sequence SVGVPYEPPEV [TP53_Y220_V217G] and give its recorded phosphorylation enrichment.
Result: 1.16

Q: Please look at this sequence and report its phosphorylation enrichment: LLILEYAKYGS [RET_Y806_V804L]
Result: 1.32
